Test system: Aureobasidium pullulans
Assay: dish cultures, growth inhibition of A. pullulans (Czapek-Dox agar)
Assay type: cell-based
Details: 360 h, pH 5, read-out: concentration at which growth was inhibited
Experimental: Laboratory experiments were carried out by making (1) dish cultures with Czapek-Dox agar at a temperature of 23° C. and (2) mini-board tests at a temperature of 23° C. and a humidity of 100%. The dish cultures had been inoculated with spores of the fungus Aureobasidium pullulans. This is a known fungus causing sapstain. In the mini-board tests, the inoculation was carried out using a spore suspension which contained a mixture of the spores of sapstain fungi. […]
readout: MIC (µg/mL)
Hi! Could you send only the number? It should be in µg/mL, unit omitted.

Inquiry: Give its MIC value. Item: CCCCCCCCCCCC[N+](C)(C)Cc1ccccc1.[Cl-] [BAC, dodecylbenzyldimethylammonium chloride]
Reply text: 10

***
Inquiry: Give its MIC value. Item: CCCCCCCCCCCC[N+](C)(C)C.[Cl-] [DMC, dodecyltrimethylammonium chloride]
Reply text: 15

* * *

Tested on: Aureobasidium pullulans
Assay: dish cultures, growth inhibition of A. pullulans (Czapek-Dox agar)
Assay type: cell-based
Settings: 360 h, pH 5, read-out: concentration at which growth was inhibited
readout: MIC

Answered examples (2):
Inquiry: Give its MIC value. Item: O=C(O)c1ccccc1 [Benzoic acid]
Reply text: > 100 µg/mL

Inquiry: Now the same for CCCCC(CC)C(=O)O (stereo not drawn) [2-ethyl hexanoic acid]
Reply text: > 100 µg/mL

Next, consider the following molecule.
Inquiry: Give its MIC value. Item: CC(=O)Oc1ccccc1C(=O)O [Acetylsalicylic acid]
Reply text: > 100 µg/mL
